format: physicochemical; conditions: pH 8
Peptide text beside a SMILES is read from it.
We use 6 as the dividing line for apparent pK (pKa) of peptide's partitioning into the bilayer: on or above the line is Fulfilled, below is Not fulfilled.

Worked examples, 3 compounds total:
{"Compound": "CC(C)C[C@@H]1NC(=O)[C@H](CS)NC(=O)[C@H](Cc2c[nH]c3ccccc23)NC(=O)[C@H](CCC(=O)O)NC(=O)[C@H](CC(C)C)NC(=O)[C@H](CCC(=O)O)NC(=O)[C@H](CC(C)C)NC(=O)[C@H](CCC(=O)O)NC(=O)[C@H](CC(C)C)NC(=O)[C@H](CCC(=O)O)NC1=O [c[(LE)4WC]] (cyclo(CLELELELEW))", "Answer Label": "Not fulfilled"}
{"Compound": "O=C(O)CC[C@@H]1NC(=O)[C@H](CS)NC(=O)[C@H](Cc2c[nH]c3ccccc23)NC(=O)[C@H](Cc2c[nH]c3ccccc23)NC(=O)[C@H](Cc2c[nH]c3ccccc23)NC(=O)[C@H](Cc2c[nH]c3ccccc23)NC(=O)[C@H](Cc2c[nH]c3ccccc23)NC(=O)[C@H](CCC(=O)O)NC(=O)[C@H](CCC(=O)O)NC(=O)[C@H](CCC(=O)O)NC1=O [c[E4W5C]]", "Answer Label": "Not fulfilled"}
{"Compound": "O=C(O)CC[C@@H]1NC(=O)[C@H](Cc2c[nH]c3ccccc23)NC(=O)[C@H](CS)NC(=O)[C@H](Cc2c[nH]c3ccccc23)NC(=O)[C@H](CCC(=O)O)NC(=O)[C@H](Cc2c[nH]c3ccccc23)NC(=O)[C@H](CCC(=O)O)NC(=O)[C@H](Cc2c[nH]c3ccccc23)NC(=O)[C@H](CCC(=O)O)NC(=O)[C@H](Cc2c[nH]c3ccccc23)NC(=O)[C@H](CCC(=O)O)NC(=O)[C@H](Cc2c[nH]c3ccccc23)NC1=O [c[(WE)5WC]] (cyclo(CWEWEWEWEWEW))", "Answer Label": "Fulfilled"}

Q: API: above_or_equal(metric=apparent pK (pKa) of peptide's partitioning into the bilayer, cutoff=6) for item O=C(O)CC[C@@H]1NC(=O)[C@H](Cc2c[nH]c3ccccc23)NC(=O)[C@H](CS)NC(=O)[C@H](Cc2c[nH]c3ccccc23)NC(=O)[C@H](CCC(=O)O)NC(=O)[C@H](Cc2c[nH]c3ccccc23)NC(=O)[C@H](CCC(=O)O)NC(=O)[C@H](Cc2c[nH]c3ccccc23)NC(=O)[C@H](CCC(=O)O)NC(=O)[C@H](Cc2c[nH]c3ccccc23)NC1=O [c[(WE)4WC]] (cyclo(CWEWEWEWEW))
A: Fulfilled
